Values compiled from PubChem BioAssay (NCI).

This section presents compounds with their documented GI50 values.
System: OVCAR-4 ovarian
Test: NCI tumour cell line growth inhibition, 48 h

>  <COMPOUND>
CC(=O)c1ccc(Nc2cc(-n3ccnc3)nc3ccccc23)cc1

>  <GI50>
> 100 µM

$$$$
>  <COMPOUND>
COc1cc[nH]c1/C=C1\C(=O)Nc2ccc(F)c(C#C[C@@H](O)[C@@H](N)[C@@H](C)O)c21

>  <GI50>
0.671 µM

$$$$
>  <COMPOUND>
Cc1ccc(S(=O)(=O)NC(CCC(=O)Nc2ccc(Cl)cc2)C(=O)Nc2ccc(Cl)cc2)cc1 (stereo not drawn)

>  <GI50>
0.775 µM

$$$$
>  <COMPOUND>
CC(=O)[CH-]C(=O)c1ccccc1.CC(=O)[CH-]C(=O)c1ccccc1.CCN(CC)CC[O-].CCN(CC)CC[O-].Cl.[Ti+4]

>  <GI50>
56.5 µM

$$$$
>  <COMPOUND>
O=C(c1cccs1)c1c(C(F)(F)F)n([O-])c2ccc(C(F)(F)F)cc2[n+]1=O

>  <GI50>
0.224 µM

$$$$
>  <COMPOUND>
COC(=O)[C@]12CC[C@@H](C)[C@H](C)[C@@H]1C1=CC[C@@H]3[C@@]4(C)CC(=O)[C@H](O)[C@@]5(C)COC(=C45)C[C@@]3(C)[C@]1(C)CC2

>  <GI50>
17.1 µM

$$$$
>  <COMPOUND>
O=C1C=C[C@]2(C[C@@H](c3cccc(C(F)(F)F)c3)O[C@@H](c3cccc(C(F)(F)F)c3)O2)O1

>  <GI50>
5.24 µM

$$$$
>  <COMPOUND>
CCOC(=O)c1cnc(SCc2ccc(Cl)c(Cl)c2)nc1N1CC1

>  <GI50>
3.17 µM

$$$$
